Assay: Cytotoxicity against human HEPA 59T/VGH cells by MTT assay
Format: functional
Settings: read-out: ED50 (the source's name)
measuredProperty: EC50 (µg/mL)

1. C=C(C)[C@@H]1CC(=O)C[C@@H]2O[C@](C)(CC2=O)C[C@@H]2C=C(C(=O)O2)[C@@H](OC)C1 [SCABROLIDE C]
17.8
2. COc1cccc2c1C(=O)c1c(O)c3c(c(O)c1C2=O)C[C@@](O)(C(=O)CO)C[C@@H]3O[C@H]1C[C@H](N)[C@H](O)[C@H](C)O1 [DOXORUBICIN]
0.3
3. C=C(C)[C@H]1C/C=C2\C(=O)O[C@H](C[C@@]3(C)CC(=O)[C@@H](CC(=O)C1)O3)[C@@H]2O
2.6
4. C=C(C)[C@H]1C/C=C(\C(=O)OC)CC(=O)C[C@@]2(C)CC(=O)[C@@H](CC(=O)C1)O2 [NORCEMBRENE 5]
17.5
5. C=C(C)[C@H]1C/C=C2\C(=O)O[C@H](C[C@@]3(C)CC(=O)[C@@H](CC(=O)C1)O3)[C@H]2O
2.4
